Data origin: the supplement of paper PMC11865577

- Tested on: TO-N3-2 (biotin conjugate)
- assay.name: pull-down binding Z-score (relative to library population); higher = stronger binding
- measurement.conditions: RNA library: Library-2
Consider the reported pull-down binding Z-score of an entry and match it to a band in lower bin: < -0.4; middle bin: ≥ -0.4 and < -0.07; upper bin: ≥ -0.07

[
  {
    "seq.string": "UAAUCACAGGCCACAUUUCUGAAUA [hsa-mir-1295b]",
    "system.under.test": "TO-N3-2 (biotin conjugate)",
    "class.label": "lower bin"
  },
  {
    "seq.string": "AGAUGAGUUUAUGUUUUAUCCAACU [hsa-mir-193b]",
    "system.under.test": "TO-N3-2 (biotin conjugate)",
    "class.label": "middle bin"
  },
  {
    "seq.string": "CAGUGACAUGCGUUUAAC [hsa-mir-4485]",
    "system.under.test": "TO-N3-2 (biotin conjugate)",
    "class.label": "upper bin"
  },
  {
    "seq.string": "AACAUUUACUUAUGCAUCAGCAUUGUGGGAAAUCCAACAGGUUGUAGAUGCAGAUAGUAAAAUUGUU [DMSMaPseq_invitro_SARS-CoV-2_Motif_222]",
    "system.under.test": "TO-N3-2 (biotin conjugate)",
    "class.label": "middle bin"
  },
  {
    "seq.string": "AGGUUCUGCUGGCUGAGAACCU [hsa-mir-3667]",
    "system.under.test": "TO-N3-2 (biotin conjugate)",
    "class.label": "upper bin"
  },
  {
    "seq.string": "AAAUAAAAGAUGGAGUCGUUUGACGUCUUUUAACACCCUUU [hsa-mir-8055]",
    "system.under.test": "TO-N3-2 (biotin conjugate)",
    "class.label": "lower bin"
  },
  {
    "seq.string": "CACAUCUAGGUUUCGUCCGGGUGUG [SARS-CoV-2-Conserved-Structured-16_Interval-158-277_Motif_2]",
    "system.under.test": "TO-N3-2 (biotin conjugate)",
    "class.label": "middle bin"
  }
]

====

- Tested on: TO-3-N3 (biotin conjugate)
- assay.name: pull-down binding Z-score (relative to library population); higher = stronger binding
- measurement.conditions: RNA library: Library-2
# pull-down binding Z-score >= -0.3 gives 1.0, anything below gives 0.0

[
  {
    "seq.string": "AGGGCAGCUCCCAUGACUGCCUGACCGC [hsa-mir-6880]",
    "class.label": 1.0
  },
  {
    "seq.string": "GGUGGUAUUGUAGCUAUCGUAGUAACAUGCCUUGCC",
    "class.label": 1.0
  },
  {
    "seq.string": "CCAGGCCACAUAAUGAGCCAAA [hsa-mir-6771]",
    "class.label": 1.0
  },
  {
    "seq.string": "GUGGGGUAUUCAUCACCCGC [IAV_invivo_HA_4_Motif_9+IAV_invivo_HA_4_Motif_9]",
    "class.label": 1.0
  },
  {
    "seq.string": "UUUUGCCAUUACUUUUACAGGCAAAA [hsa-mir-548aa-1]",
    "class.label": 0.0
  },
  {
    "seq.string": "AACGUUAUGUGUGGUCUUUAACCUGUU [hsa-mir-6755]",
    "class.label": 1.0
  },
  {
    "seq.string": "AAACUUGUGCCCUUUUGGUGAAGUUUUUAACGCCACCAGAUUUGCAUCUGUUU [SHAPE_invivo_SARS-CoV-2_Motif_425]",
    "class.label": 0.0
  },
  {
    "seq.string": "UUACAGAUCUUUACCAGGAGUUUUCUGUGGUGUAGAUGCUGUAA [SHAPE_invivo_SARS-CoV-2_Motif_187]",
    "class.label": 0.0
  },
  {
    "seq.string": "CUUUUUGCCACCUGAGCACAGUCAGCAGUCAGCAUAAAA [hsa-mir-4275]",
    "class.label": 1.0
  },
  {
    "seq.string": "GCAGAUUCUCUCUCUC [hsa-mir-4279]",
    "class.label": 1.0
  },
  {
    "seq.string": "AGUUUGUGAUAAUGUUUGUCUAUAUAGUUAUGAAUG [hsa-mir-4307]",
    "class.label": 0.0
  },
  {
    "seq.string": "GCUAAAUUGUUACAUAAACCUAUUGUUUGGCAUGUUAACAAUGC [SHAPE_invitro_SARS-CoV-2_Motif_124]",
    "class.label": 0.0
  },
  {
    "seq.string": "CAGGUAUGAAUGAUACUUACCUG [U1snRNP5ss-11]",
    "class.label": 1.0
  },
  {
    "seq.string": "ACUAGAUUUGAAUCCAGACCUUUAGU [hsa-mir-5584]",
    "class.label": 1.0
  },
  {
    "seq.string": "GUUUGUCUUAGUGGUUUAGAUUCUUUAGACACCUAUCCUUCUUUAGAAACUAUACAAAU",
    "class.label": 1.0
  },
  {
    "seq.string": "UUAUCUGUCACCAGUCAGAUAACUGUCACCAGUCAGUUAA [hsa-mir-4764]",
    "class.label": 0.0
  },
  {
    "seq.string": "GCAGAUAGUGGUCCUCUCCGUGCUACCGC [hsa-mir-106b]",
    "class.label": 1.0
  },
  {
    "seq.string": "CACUGCAGUUACCCUCCCCUCGGCGUUACUGAGCACUG [hsa-mir-637]",
    "class.label": 1.0
  },
  {
    "seq.string": "CAACGGUACUAUUACCGUUG",
    "class.label": 1.0
  },
  {
    "seq.string": "GUAUCUGAAUUAC",
    "class.label": 1.0
  },
  {
    "seq.string": "UCAUUUUCCUUAAAAAAUGA [hsa-mir-3128]",
    "class.label": 0.0
  },
  {
    "seq.string": "UGAUGUCACAGAUGUGACUCA",
    "class.label": 0.0
  },
  {
    "seq.string": "AGAAAAUUUUUCUCCAAAGUUUUCU [hsa-mir-4659b]",
    "class.label": 0.0
  },
  {
    "seq.string": "GGAAUGGAUCCC [IAV_invivo_NP_5_Motif_9+IAV_invivo_NP_5_Motif_9]",
    "class.label": 1.0
  },
  {
    "seq.string": "GUGCCCAAAAUACGUCAGGAGUGC [IAV_invivo_HA_4_Motif_13+IAV_invivo_HA_4_Motif_13]",
    "class.label": 0.0
  },
  {
    "seq.string": "UGUGGCCUUUUUGCCUUUUCUAAAGGCCACAU [hsa-mir-1250]",
    "class.label": 1.0
  },
  {
    "seq.string": "AACUCCUGCGAGUCCCUGGAGUU [hsa-mir-1258]",
    "class.label": 1.0
  },
  {
    "seq.string": "AAGCCCUACGAGAAACUGGGGUUUCUGGA [hsa-mir-765]",
    "class.label": 1.0
  },
  {
    "seq.string": "GCUUCUCUUUCUCACCAGCAGC [hsa-mir-4467]",
    "class.label": 0.0
  },
  {
    "seq.string": "UUAUUCAGAGAGGCUAGAUCCUCUGUGUUGAGAAGGAUCA [hsa-mir-433]",
    "class.label": 0.0
  },
  {
    "seq.string": "UGGUGGAGAUGGAGAGCCCUGAGCCUCCA [hsa-mir-6777]",
    "class.label": 1.0
  },
  {
    "seq.string": "AUGGUUAAUGUUCCACAGCCA [hsa-mir-5190]",
    "class.label": 1.0
  },
  {
    "seq.string": "CCCAAGUCAUGAAGGAGAGGG [IAV_invivo_PA_3_Motif_13+IAV_invivo_PA_3_Motif_13]",
    "class.label": 1.0
  },
  {
    "seq.string": "UGCACUUGACCCUCUCUCAGAAACAAAGUGUA",
    "class.label": 1.0
  },
  {
    "seq.string": "GGUUCAACUCUCCCUAGGAGGUCUGGAGCC [IAV_invivo_NP_5_Motif_11+IAV_invivo_NP_5_Motif_11]",
    "class.label": 0.0
  },
  {
    "seq.string": "CCAGUGGUUUUCCUUGACUGUG [hsa-mir-298]",
    "class.label": 0.0
  },
  {
    "seq.string": "CCAGUAUCUGAAUUACUUACACCACUGGGCAUUGAUUUAGAUGAGUGGAGUAUGGCUACAUACUACUUAUUUGAUGAGUCUGGUGAGUUUAAAUUGG",
    "class.label": 0.0
  },
  {
    "seq.string": "GGAAGGGCGCCUGUGCUUCGUCC [hsa-mir-572]",
    "class.label": 1.0
  },
  {
    "seq.string": "AUCGGUCGAGAGCGUCCUGGCUGAU [hsa-mir-3178]",
    "class.label": 1.0
  }
]
